Molecular target: p38MAPK (Homo sapiens, UniProt Q16539)
Construct: gene MAPK14; commercial recombinant human protein; labelled with Monolith RED-NHS
Sequence (Q16539 2-360): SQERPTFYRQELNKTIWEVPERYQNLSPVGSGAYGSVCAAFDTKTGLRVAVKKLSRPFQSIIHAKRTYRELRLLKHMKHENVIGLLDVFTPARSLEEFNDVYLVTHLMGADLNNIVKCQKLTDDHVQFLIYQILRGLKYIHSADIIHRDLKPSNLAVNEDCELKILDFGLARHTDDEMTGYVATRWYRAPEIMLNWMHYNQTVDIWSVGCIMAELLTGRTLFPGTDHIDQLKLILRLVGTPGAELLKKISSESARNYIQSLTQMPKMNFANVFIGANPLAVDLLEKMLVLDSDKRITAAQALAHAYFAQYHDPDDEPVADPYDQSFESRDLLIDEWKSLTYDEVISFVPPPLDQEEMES
Assay: microscale thermophoresis
Type: binding
TEST READOUT: Kd (µM)
// units = µM; emit number, no label

Worked cases, answers included:
# SMILES REPRESENTATION, TARGET OR TEST SYSTEM, UNIT NAME, Kd
records = [
    ("C[C@@H]1O[C@@H](OC[C@H]2O[C@@H](Oc3c(-c4ccc(O)cc4)oc4cc(O)cc(O)c4c3=O)[C@H](O)[C@@H](O)[C@@H]2O)[C@H](O)[C@H](O)[C@H]1O", "p38MAPK (Homo sapiens, UniProt Q16539)", "µM", 1.4),
    ("C[C@@H]1O[C@@H](OC[C@H]2O[C@@H](Oc3c(-c4ccc(O)c(O)c4)oc4cc(O)cc(O)c4c3=O)[C@H](O)[C@@H](O)[C@@H]2O)[C@H](O)[C@H](O)[C@H]1O", "p38MAPK (Homo sapiens, UniProt Q16539)", "µM", 1.27),
]

Proceeding to the next compound to report its Kd.
Ask | Can you share its Kd? I mean this compound: O=C(/C=C/c1ccc(O)c(O)c1)O[C@@H]1[C@H](O)C[C@@](O)(C(=O)O)C[C@H]1OC(=O)/C=C/c1ccc(O)c(O)c1
Reply | 1.71

###

Recorded Kd values for a group of compounds are listed next.
Biological target: HSP27 (Homo sapiens)
Construct: gene HSPB1; commercial recombinant human protein; labelled with Monolith RED-NHS
Sequence (P04792 whole entry): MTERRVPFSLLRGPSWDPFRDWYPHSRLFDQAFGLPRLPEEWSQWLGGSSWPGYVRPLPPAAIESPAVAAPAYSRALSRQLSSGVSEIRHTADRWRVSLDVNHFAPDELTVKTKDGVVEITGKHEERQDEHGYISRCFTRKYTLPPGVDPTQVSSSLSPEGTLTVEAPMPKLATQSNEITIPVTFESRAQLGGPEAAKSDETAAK
Test: microscale thermophoresis
Assay type: binding
// units = µM; emit number, no label

# COMPOUND, UNIT NAME, TEST VALUE
data = [
    ("C[C@@H]1O[C@@H](OC[C@H]2O[C@@H](Oc3c(-c4ccc(O)c(O)c4)oc4cc(O)cc(O)c4c3=O)[C@H](O)[C@@H](O)[C@@H]2O)[C@H](O)[C@H](O)[C@H]1O", "µM", 3.76),
    ("C[C@@H]1O[C@@H](OC[C@H]2O[C@@H](Oc3c(-c4ccc(O)cc4)oc4cc(O)cc(O)c4c3=O)[C@H](O)[C@@H](O)[C@@H]2O)[C@H](O)[C@H](O)[C@H]1O", "µM", 4.47),
    ("C[S+]([O-])c1ccc(-c2nc(-c3ccncc3)c(-c3ccc(F)cc3)[nH]2)cc1 (stereo not shown)", "µM", 0.915),
]

Proceeding to the next compound to report its Kd.
Ask | Can you share its Kd? I mean this compound: O=C(/C=C/c1ccc(O)c(O)c1)O[C@@H]1[C@H](O)C[C@@](O)(C(=O)O)C[C@H]1OC(=O)/C=C/c1ccc(O)c(O)c1
Reply | 3.64

Attribution: paper PMC12391121
